These entries and their values trace back to patent US20210253725A1.

# target: T1, CD134 expressed on the cell surface of HT1080_OX40 cells (human, UniProt P43489 29-277); note: test concentration or dose not given here
# T1 sequence (looked up): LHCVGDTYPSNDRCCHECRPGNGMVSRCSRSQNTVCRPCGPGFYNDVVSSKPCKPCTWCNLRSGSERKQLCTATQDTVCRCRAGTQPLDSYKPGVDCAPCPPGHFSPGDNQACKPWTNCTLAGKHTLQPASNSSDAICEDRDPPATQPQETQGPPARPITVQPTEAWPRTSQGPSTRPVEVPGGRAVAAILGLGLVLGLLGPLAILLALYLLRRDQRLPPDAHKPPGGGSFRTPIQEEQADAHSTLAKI
# testDetails: cell-based or functional assay
Consider the following binders and their measured Functional assay Cross-linked by F(ab′)2 fragment IL-8 readings.

Here's what some known entries look like.
Entry under review: P018.S.11.A.A06 (antibody, V domains shown, V regions on human Ig constant parts; also called AB134_23) VH: QEQLVESGGGLVQPEGSLTLTCKASGFSFSSANCMHWVRQAPEKGLQWIGCVCIGDGTTYYASWVNGRFSISATSSTTVTIQMTSLTAADTATYFCARDLGLWGPGTLVTVSS VL: AIVMTQTPSSKSVPVGDTVTINCQASESVDKYTQCSWYQQKPGQPPKLLIYYASTLASGVPSRFKGSGSGTQFTLTISDVVSDDAATYYCSGYKGGSADMIAFGGGTELVVT . Reported Functional assay Cross-linked by F(ab′)2 fragment IL-8?
2.16 abs. corr.

Entry under review: P018.S.12.A.G02 (antibody, V domains shown, V regions on human Ig constant parts; also called AB134_84) VH: QSLEESGGRLVTPGTPLTLTCTASGFSLNMFYMIWVRQAPGKGLEWIGMIDSMGSAWYASWAKGRFTISKTSTAVALKITSPTTEDTATYFCARAINGDGAGDLWGQGTLVTVSS VL: DVVMTQTPASVSAAVGGTVTINCRASEKIDSFLAWYQQKPGQPPKLLIYGASELAPGVPSRFSGSGSGTDYTLTISALESADAATYYCQSTADGSDYVGTFGGGTEVVVK . Reported Functional assay Cross-linked by F(ab′)2 fragment IL-8?
1.81 abs. corr.

Entry under review: P018.S.12.A.B03 (antibody, V domains shown, V regions on human Ig constant parts; also called AB134_58) VH: QSLEESGGRLVTPGTPLTLICTVSGIDLSSGAMGWVRQAPGKGLEYIGYIYTGSGTTSYASWVNGRFTISMTSTTVDLKITSPTTEDTATYFCARDAASSYWGHFTLWGQGTLVTVSS VL: DIVMTQTPASVEAAVGGTVTIKCQASENIYSSLAWYQQKPGQPPKLLIYRTSTLASGVPSRFKGSGSGTQFTLTISDLESDDAATYYCQSYYHNSGGGYDYGFGGGTEVVAK . Reported Functional assay Cross-linked by F(ab′)2 fragment IL-8?
2.05 abs. corr.

Entry under review: P018.S.12.A.B02 (antibody, V domains shown, V regions on human Ig constant parts; also called AB134_57) VH: QSLEESGGRLVTPGTPLTLTCTVSGIDLSKYTMTWVRQAPGKGLEWIGLISFGGRGGTWYANWAKGRFTISKTSTTVDLRIASPTTEDTATYFCARARYSGTNYDYFNLWGQGTLVTVSS VL: AYDMTQTPASVEVAVGGTVTIKCQASQSISNWLAWYQQKPGQRPKLLIYGASNLESGVPSRFKGSGSGTDFTLTISDLESADAATYYCQQGYSSDGVTNAFGGGTEVVVE . Reported Functional assay Cross-linked by F(ab′)2 fragment IL-8?
1.97 abs. corr.

Here is the next item to consider.
Entry under review: P018.S.12.A.A04 (antibody, V domains shown, V regions on human Ig constant parts; also called AB134_53) VH: QSVEESGGRLVTPGTPLTLTCTVSGIDLSSYAMSWVRQAPGKGLEYIGIISGSGNTYYASWAKGRFTISKTSTTVDLKISSPTTEDTATYFCCRGDPSYSIDGFDPWGPGTLVTVSS VL: AAVLTQTPSPVSAAVGGTVTINCQSSQSVYNNNDLAWYQQKPGQPPKLLIYRASNLASGVPSRFSGSGSGTQFTLTISGVQSGDAATYYCLGAWDDDADTWAFGGGTEVVVE . Reported Functional assay Cross-linked by F(ab′)2 fragment IL-8?
1.4 abs. corr.
